assay: in vivo; conditions: male, SD, rat, in vivo, po
Assay metric: Tmax

Record excerpt, results attached:
[[record]]
compound = "CC(NC(C)(C)C)C(=O)c1cccc(Cl)c1 (stereo not shown) [Bup, bupropion]"
readout_value = "25 min"

[[record]]
compound = "CCOc1ccc(NC(C)=O)cc1 [PHE, Phenacetin]"
readout_value = "37.5 min"

[[record]]
compound = "O=C(O)Cc1ccccc1Nc1c(Cl)cccc1Cl [Dic, diclofenac]"
readout_value = "17.5 min"


In the following, a different compound is considered.
The compound listed as Cc1ncc2n1-c1ccc(Cl)cc1C(c1ccccc1F)=NC2 [MDZ, midazolam] has a reported Tmax of 40 min

====

Target: CYP2A6 (Homo sapiens, UniProt P11509)
Sequence (P11509 whole entry): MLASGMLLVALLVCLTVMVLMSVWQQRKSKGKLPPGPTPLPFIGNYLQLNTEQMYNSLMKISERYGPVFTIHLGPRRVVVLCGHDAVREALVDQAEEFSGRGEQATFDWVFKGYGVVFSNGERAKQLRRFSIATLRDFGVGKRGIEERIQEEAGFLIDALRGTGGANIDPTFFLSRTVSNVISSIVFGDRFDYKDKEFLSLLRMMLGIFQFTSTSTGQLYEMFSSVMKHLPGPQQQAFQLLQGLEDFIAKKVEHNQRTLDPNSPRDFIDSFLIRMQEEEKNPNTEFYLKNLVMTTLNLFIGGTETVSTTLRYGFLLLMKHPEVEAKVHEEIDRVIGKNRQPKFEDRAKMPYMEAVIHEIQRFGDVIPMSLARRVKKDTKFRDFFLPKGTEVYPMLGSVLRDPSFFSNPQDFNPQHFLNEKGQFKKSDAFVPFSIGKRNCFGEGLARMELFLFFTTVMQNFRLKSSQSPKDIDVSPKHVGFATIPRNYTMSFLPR
Test: CYP2A6 inhibition, coumarin probe in human liver microsomes
Conditions: human, human liver microsomes, pH 7.4, probe coumarin 2 μM, Residual activity (%) CYP2A6, HLM 0.5 mg/mL
Procedure: The total volume of the in vitro metabolic incubation system is 200 μL. The probe substrate concentration in the system is shown in Supplementary Table S1. […] The reaction sample was preheated in a constant temperature mixer at 37°C. Then NADP^+ was added to the system to initiate the reaction. […] The supernatant was analyzed using liquid chromatography tandem mass spectrometry (LC-MS/MS), and the activity of CYP enzymes was evaluated by the generation of probe metabolites. […]
Assay metric: activity at 30 min (%)
Dear colleague, please return just the value in %, with no unit written.

Record excerpt, results attached:
[[record]]
compound = "CC(=CC(=O)CC(C)C(=O)O)C1CC(=O)C2(C)C3=C(C(=O)CC12C)C1(C)CCC(=O)C(C)(C)C1CC3O (stereo not drawn)"
output_unit = "%"
readout_value = 86

[[record]]
compound = "CC(=O)OC1C(=O)C2=C(C(=O)CC3C(C)(C)C(=O)CCC23C)C2(C)C(=O)CC(C(C)CC(=O)CC(C)C(=O)O)C12C (stereo not drawn)"
output_unit = "%"
readout_value = 91.5

[[record]]
compound = "CC(CCC(O)C(C)(O)CO)C1CCC2(C)C3=C(C(=O)CC12C)C1(C)CCC(=O)C(C)(C)C1CC3 (stereo not drawn)"
output_unit = "%"
readout_value = 70.1

[[record]]
compound = "CC1(C)CCC2(C(=O)O)CCC3(C)C(=C2C1)C=CC1C2(C)CCC(O)C(C)(C)C2CCC13C (stereo not drawn)"
output_unit = "%"
readout_value = 87

[[record]]
compound = "CC(CC(=O)CC(C)C1CC(O)C2(C)C3=C(C(=O)CC12C)C1(C)CCC(=O)C(C)(C)C1CC3=O)C(=O)O (stereo not drawn)"
output_unit = "%"
readout_value = 90.1


The compound listed as CC(CC(=O)CC(C)C1CC(=O)C2(C)C3=C(C(=O)CC12C)C1(C)CCC(O)C(C)(C)C1CC3=O)C(=O)O (stereo not drawn) has a reported activity at 30 min of 82.6

The compound listed as CC(=O)OC1C(=O)C2=C(C(=O)CC3C2(C)CCC(O)C3(C)C)C2(C)C(=O)CC(C3(C)CCC(=O)O3)C12C (stereo not drawn) has a reported activity at 30 min of 72.3

The compound listed as CC(=CC(=O)CC(C)C(=O)O)C1CC(=O)C2(C)C3=C(C(=O)C(O)C12C)C1(C)CCC(=O)C(C)(CO)C1CC3O (stereo not drawn) has a reported activity at 30 min of 75.3
